# targetEntity: human F508del CFTR (Homo sapiens, UniProt P13569, DEL508-508)
# Construct: expressed in transfected cells
# Sequence (P13569 with tags, fused parts or gaps DEL508-508): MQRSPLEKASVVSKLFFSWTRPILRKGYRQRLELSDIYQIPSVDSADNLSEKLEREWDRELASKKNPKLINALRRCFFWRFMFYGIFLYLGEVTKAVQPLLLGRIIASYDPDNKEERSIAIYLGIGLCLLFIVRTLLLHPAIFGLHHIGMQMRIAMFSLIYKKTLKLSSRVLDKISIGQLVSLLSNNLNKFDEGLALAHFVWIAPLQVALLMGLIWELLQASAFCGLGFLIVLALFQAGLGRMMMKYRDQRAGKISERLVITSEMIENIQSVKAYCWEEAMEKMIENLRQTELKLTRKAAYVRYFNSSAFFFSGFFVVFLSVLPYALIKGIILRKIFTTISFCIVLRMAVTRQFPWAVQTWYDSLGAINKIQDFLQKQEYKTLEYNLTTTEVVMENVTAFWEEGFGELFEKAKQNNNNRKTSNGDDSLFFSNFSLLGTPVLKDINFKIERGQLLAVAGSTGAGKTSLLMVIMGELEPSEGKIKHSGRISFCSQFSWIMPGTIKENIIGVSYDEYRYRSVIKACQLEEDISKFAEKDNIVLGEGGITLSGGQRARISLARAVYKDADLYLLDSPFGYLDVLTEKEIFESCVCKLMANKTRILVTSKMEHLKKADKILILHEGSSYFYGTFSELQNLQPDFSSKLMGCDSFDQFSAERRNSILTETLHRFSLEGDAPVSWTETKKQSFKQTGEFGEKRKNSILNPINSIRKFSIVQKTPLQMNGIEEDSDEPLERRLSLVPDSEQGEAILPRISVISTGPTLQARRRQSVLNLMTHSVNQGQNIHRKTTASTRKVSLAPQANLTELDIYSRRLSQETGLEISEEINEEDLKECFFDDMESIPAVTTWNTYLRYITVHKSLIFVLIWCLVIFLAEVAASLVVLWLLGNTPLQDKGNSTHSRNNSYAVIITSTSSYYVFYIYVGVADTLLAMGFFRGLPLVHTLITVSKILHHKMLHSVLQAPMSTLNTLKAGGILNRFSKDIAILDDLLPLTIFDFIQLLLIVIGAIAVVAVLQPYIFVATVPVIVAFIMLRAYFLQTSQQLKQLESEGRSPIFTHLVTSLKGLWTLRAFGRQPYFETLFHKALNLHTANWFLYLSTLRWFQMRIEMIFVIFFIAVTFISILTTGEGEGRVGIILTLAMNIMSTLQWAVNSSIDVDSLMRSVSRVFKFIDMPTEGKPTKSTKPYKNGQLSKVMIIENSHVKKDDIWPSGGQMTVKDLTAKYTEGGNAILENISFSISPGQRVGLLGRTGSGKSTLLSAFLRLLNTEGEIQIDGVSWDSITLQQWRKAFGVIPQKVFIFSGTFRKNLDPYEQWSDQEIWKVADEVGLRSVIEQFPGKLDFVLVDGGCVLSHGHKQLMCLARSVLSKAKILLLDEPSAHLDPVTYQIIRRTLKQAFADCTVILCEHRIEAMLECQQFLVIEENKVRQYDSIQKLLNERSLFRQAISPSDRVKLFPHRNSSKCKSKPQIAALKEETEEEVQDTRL
# experimentNotes: CFTR-YFP Assay, CFTR Corrector Protocol (YFP flux assay)
# Assay type: cell-based
# conditionSet: normalized to the positive control, read-out: EMAX (% Efficacy, EMAX normalized to the positive control)
quantityMeasured: Emax

Would you please look over these solved cases?
# input What value of Emax has been recorded for this entry: COc1ccc(S(=O)(=O)N2CCC(n3c(-c4ncc[nH]4)nc4cccnc43)CC2)cc1Cl
# output 30 to 80%

# input Next entry: COc1ccc(S(=O)(=O)N2CCC(n3c(-c4ccc(F)cc4)nc4cccnc43)CC2)cc1Cl
# output 30 to 80%

# input Next entry: COc1ccc(S(=O)(=O)N2CCC(n3c(-c4ccccc4C#N)nc4cccnc43)CC2)cc1Cl
# output 30 to 80%

# input Next entry: CCc1ccc(S(=O)(=O)N2CCC(n3c(-c4ccncc4F)nc4ccc(OC)nc43)CC2)cc1
# output 30 to 80%

# input Next entry: CCc1ccc(S(=O)(=O)N2CCC(N(c3ccccn3)S(=O)(=O)c3cccc(Cl)c3)CC2)cc1
# output 30 to 80%

# input Next entry: Cc1ccc2nc(-c3ccccc3)n(C3CCN(S(=O)(=O)c4ccc5c(c4)OCO5)CC3)c2n1
# output 30 to 80%

***
# input What value of Emax has been recorded for this entry: CC(=O)Nc1ccc(S(=O)(=O)N2CCC(n3c(-c4ccccc4)nc4cccnc43)CC2)cc1Cl
# output 10 to 30%

# input Next entry: O=S(=O)(c1ccc2c(c1)CCC2)N1CCC(n2c(-c3ccncc3F)nc3cccnc32)CC1
# output 30 to 80%

# input Next entry: CCc1ccc(S(=O)(=O)N2CCC(n3c(-c4ccncc4F)nc4c(OC)ccnc43)CC2)cc1
# output 30 to 80%

# input Next entry: COc1ccc(S(=O)(=O)N2CCC(N(C(=O)c3ccccc3Cl)c3ccccn3)CC2)cc1Cl
# output 10 to 30%

# input Next entry: COc1ccc(S(=O)(=O)N2CCC(N(C(=O)Nc3ccccc3Cl)c3cccc(C)n3)CC2)cc1Cl
# output 10 to 30%

# input Next entry: COc1ccc(S(=O)(=O)N2CCC(n3c(-c4ncccc4Cl)nc4cccnc43)CC2)cc1Cl
# output 30 to 80%

# input Next entry: [2H]C1([2H])Oc2ccc(S(=O)(=O)N3CCC(n4c(-c5ccncc5F)nc5cccnc54)CC3)cc2O1
# output 10 to 30%

# input Next entry: CCc1ccc(S(=O)(=O)N2CCC(N(C(=O)Nc3ccccc3)c3cccc(C)n3)CC2)cc1
# output 10 to 30%

# input Next entry: O=S(=O)(c1ccc2c(c1)CCC2)N1CCC(n2c(-c3ccc(F)cc3F)nc3cccnc32)CC1
# output > 80%

# input Next entry: COc1ccc(S(=O)(=O)N2CCC(N(C(=O)Nc3ccccc3Cl)c3ccccn3)CC2)cc1Cl
# output 10 to 30%

# input Next entry: O=S(=O)(c1ccc2c(c1)OCO2)N1CCC(n2c(-c3ccncc3F)nc3cccnc32)CC1
# output 30 to 80%

# input Next entry: Cc1ccc2nc(-c3ccccc3F)n(C3CCN(S(=O)(=O)c4ccc5c(c4)OC(F)(F)O5)CC3)c2n1
# output 30 to 80%

# input Next entry: COc1ccc(S(=O)(=O)N2CCC(N(c3ccccn3)S(=O)(=O)c3c(C)cc(C)cc3C)CC2)cc1Cl
# output 10 to 30%

# input Next entry: O=S(=O)(c1ccc2c(c1)OCO2)N1CCC(n2c(-c3ccc(F)cc3F)nc3cccnc32)CC1
# output 30 to 80%

# input Next entry: CCc1ccc(S(=O)(=O)N2CCC(N(c3nccs3)S(=O)(=O)c3ccccc3Cl)CC2)cc1
# output 30 to 80%

# input Next entry: CCc1ccc(S(=O)(=O)N2CCC(N(C(=O)c3ccncc3Cl)c3ccccn3)CC2)cc1
# output 10 to 30%

# input Next entry: CCc1ccc(S(=O)(=O)N2CCC(N(c3ccccn3)S(=O)(=O)c3c(C)cc(C)cc3C)CC2)cc1
# output 30 to 80%

# input Next entry: COc1ccc(S(=O)(=O)N2CCC(n3c(-c4ccccc4OC(C)=O)nc4cccnc43)CC2)cc1Cl
# output 30 to 80%

# input Next entry: CCc1ccc(S(=O)(=O)N2CCC(n3c(-c4ccncc4F)nc4ccc(C)nc43)CC2)cc1
# output 30 to 80%

# input Next entry: Cc1ccc(S(=O)(=O)N2CCC(n3c(-c4ccccc4Cl)nc4cccnc43)CC2)cc1
# output 30 to 80%

# input Next entry: O=S(=O)(c1ccc(OC(F)F)cc1)N1CCC(n2c(-c3ccncc3F)nc3nccnc32)CC1
# output 10 to 30%

# input Next entry: Cc1ccc(S(=O)(=O)N2CCC(n3c(-c4ccncc4Cl)nc4cccnc43)CC2)cc1C#N
# output 10 to 30%

# input Next entry: COc1ccc(S(=O)(=O)N2CCC(n3c(-c4ccccc4Cl)nc4ccc(C)nc43)CC2)cc1OC
# output 10 to 30%

# input Next entry: CCc1ccc(S(=O)(=O)N2CCC(n3c(-c4ccncc4F)nc4cccnc43)CC2)cc1
# output 30 to 80%

# input Next entry: CCc1ccc(S(=O)(=O)N2CCC(N(c3ncccc3OC)S(=O)(=O)c3ccccc3Cl)CC2)cc1
# output 30 to 80%

* * *

# targetEntity: human F508del CFTR (Homo sapiens, UniProt P13569, DEL508-508)
# experimentNotes: CFTR-YFP Assay, CFTR Corrector Protocol (YFP flux assay)
Entries and their measured EC50 follow.

Would you please look over these solved cases?
# input What value of EC50 has been recorded for this entry: CCc1ccc(S(=O)(=O)N2CCC(n3c(-c4ccncc4Cl)nc4c(OC)ccnc43)CC2)cc1 [Example 170]
# output > 20 µM

# input Next entry: O=S(=O)(c1ccc(OC(F)F)cc1)N1CCC(n2c(-c3ccncc3Cl)nc3cccnc32)CC1 [Example 56]
# output < 10 µM

# input Next entry: O=S(=O)(c1ccc2cc[nH]c2c1)N1CCC(n2c(-c3ccncc3Cl)nc3cccnc32)CC1 [Example 161]
# output 10 to 20 µM

# input Next entry: COc1ccc(S(=O)(=O)N2CCC(n3c(-c4ccccc4)nc4cccnc43)CC2)cc1C(F)(F)F [Example 74]
# output < 10 µM

# input Next entry: COc1ccc(S(=O)(=O)N2CCC(n3c(-c4ccc(F)cc4)nc4cccnc43)CC2)cc1Cl [Example 77]
# output < 10 µM

***
# input What value of EC50 has been recorded for this entry: Cc1cc(C)c(S(=O)(=O)N(c2ccccn2)C2CCN(S(=O)(=O)c3ccc4c(c3)OC(F)(F)O4)CC2)c(C)c1 [Example 185]
# output < 10 µM

# input Next entry: CCc1ccc(S(=O)(=O)N2CCC(N(c3ncccc3OC)S(=O)(=O)c3ccccc3Cl)CC2)cc1 [Example 247]
# output < 10 µM

# input Next entry: COc1ccc(S(=O)(=O)N2CCC(n3c(-c4ccccc4OC(F)(F)F)nc4cccnc43)CC2)cc1Cl [Example 76]
# output < 10 µM

* * *

# targetEntity: human F508del CFTR (Homo sapiens, UniProt P13569, DEL508-508)
# experimentNotes: CFTR-YFP Assay, CFTR Corrector Protocol (YFP flux assay)
Entries and their measured EC50 follow.

# input What value of EC50 has been recorded for this entry: Cc1nc2ccc(S(=O)(=O)N3CCC(n4c(-c5ccncc5F)nc5cccnc54)CC3)cc2s1
# output < 10 µM

# input Next entry: COc1ccc(S(=O)(=O)N2CCC(N(C(=O)Nc3ccccc3Cl)c3ccccn3)CC2)cc1Cl
# output < 10 µM

# input Next entry: COc1ccc(S(=O)(=O)N2CCC(n3c(-c4ccccc4OC(C)=O)nc4cccnc43)CC2)cc1Cl
# output < 10 µM

# input Next entry: Cc1cc2cc(S(=O)(=O)N3CCC(n4c(-c5ccncn5)nc5cccnc54)CC3)ccc2[nH]1
# output < 10 µM

# input Next entry: CCc1ccc(S(=O)(=O)N2CCC(n3c(-c4ccncc4F)nc4ccc(OC)nc43)CC2)cc1
# output > 20 µM

# input Next entry: COc1ccc(S(=O)(=O)N2CCC(N(C(=O)Nc3ccccc3Cl)c3cccc(C)n3)CC2)cc1Cl
# output < 10 µM

# input Next entry: COc1ccc(S(=O)(=O)N2CCC(N(C(=O)c3ccccc3)c3cccc(C)n3)CC2)cc1Cl
# output > 20 µM

* * *

# targetEntity: human F508del CFTR (Homo sapiens, UniProt P13569, DEL508-508)
# Construct: expressed in transfected cells
# experimentNotes: CFTR-YFP Assay, CFTR Corrector Protocol (YFP flux assay)
# Type: cell-based
# conditionSet: normalized to the positive control, read-out: EMAX (% Efficacy, EMAX normalized to the positive control)
Entries and their measured Emax follow.

Would you please look over these solved cases?
# input What value of Emax has been recorded for this entry: O=S(=O)(c1ccc2c(c1)OC(F)(F)O2)N1CCC(n2c(-c3ccncc3F)nc3ncccc32)CC1
# output > 80%

# input Next entry: O=S(=O)(c1ccc2c(c1)OC(F)(F)O2)N1CCC(n2c(-c3ccc(F)cc3C(F)(F)F)nc3cccnc32)CC1
# output 30 to 80%

# input Next entry: COc1ccc(S(=O)(=O)N2CCC(n3c(-c4ccccc4)nc4cccnc43)CC2)cc1C
# output 30 to 80%

# input Next entry: COc1ccc(S(=O)(=O)N2CCC(n3c(-c4ccccc4)nc4ccc(C)nc43)CC2)cc1F
# output 30 to 80%

# input Next entry: CC1Cc2cc(S(=O)(=O)N3CCC(n4c(-c5ccc(F)cc5F)nc5cccnc54)CC3)ccc2N1 (stereo not drawn)
# output 10 to 30%

# input Next entry: CCc1ccc(S(=O)(=O)N2CCC(N(C(=O)Nc3ccccc3)c3ccccn3)CC2)cc1
# output 10 to 30%

# input Next entry: CCc1ccc(S(=O)(=O)N2CCC(N(c3ccccn3)S(=O)(=O)c3ccccc3Cl)CC2)cc1
# output 10 to 30%

# input Next entry: CCc1ccc(S(=O)(=O)N2CCC(N(C(=O)c3ccccc3Cl)c3ccc4c(c3)OC(F)(F)O4)CC2)cc1
# output 30 to 80%

***
# input What value of Emax has been recorded for this entry: COc1ccc2c(c1)nc(-c1ccccc1Cl)n2C1CCN(S(=O)(=O)c2ccc3c(c2)OC(F)(F)O3)CC1
# output 30 to 80%

# input Next entry: CCc1ccc(S(=O)(=O)N2CCC(N(c3ccncn3)S(=O)(=O)c3ccccc3Cl)CC2)cc1
# output 30 to 80%
